The entries below come with measured RLU values attached.
Target: T1, human CD71 extracellular domain (human, UniProt P02786 89-760)
T1 construct: also called hCD71; human CD71-ECD
T1 sequence (P02786 89-760): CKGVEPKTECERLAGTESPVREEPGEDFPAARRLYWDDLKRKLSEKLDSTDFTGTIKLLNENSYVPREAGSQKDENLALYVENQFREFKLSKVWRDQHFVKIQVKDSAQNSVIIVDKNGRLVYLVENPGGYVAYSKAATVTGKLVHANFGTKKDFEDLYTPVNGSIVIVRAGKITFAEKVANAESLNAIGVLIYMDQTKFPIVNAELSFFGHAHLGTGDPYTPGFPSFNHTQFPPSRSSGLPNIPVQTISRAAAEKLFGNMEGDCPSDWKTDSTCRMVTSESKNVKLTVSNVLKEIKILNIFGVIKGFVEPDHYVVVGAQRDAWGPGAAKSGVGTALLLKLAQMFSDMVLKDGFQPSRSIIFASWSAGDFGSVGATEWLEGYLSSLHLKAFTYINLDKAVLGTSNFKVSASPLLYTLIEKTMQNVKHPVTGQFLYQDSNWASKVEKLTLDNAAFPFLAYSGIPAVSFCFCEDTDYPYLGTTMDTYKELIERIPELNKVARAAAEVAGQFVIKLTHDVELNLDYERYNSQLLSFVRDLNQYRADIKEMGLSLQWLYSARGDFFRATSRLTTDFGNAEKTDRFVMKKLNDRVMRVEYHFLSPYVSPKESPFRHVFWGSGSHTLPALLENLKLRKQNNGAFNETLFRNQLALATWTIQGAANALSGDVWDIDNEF
Assay: primary ELISA; also: test concentration or dose not given here
Reported Endpoint: RLU (RLU)

- CD71-binding FN3 domain of SEQ ID NO: 190 (designed binder) MSLPAPKNLVISRVTEDSARLSWTAPDAAFDSFEIGYFENLYLGEAIVLTVPGSERSYDLTGLKPGTEYWVQIGGVKGGNWSAPLSAISTT: 3.66e+06
- CD71-binding FN3 domain of SEQ ID NO: 143 (designed binder) MSLPAPKNLVVSRVTEDSARLSWTAPDAAFDSFAIQYVEVIGSGEAIELIVPGSERSYDLTGLKPGTEYHVYIDGVKGGKDSKPLYAGFTT: 2.91e+06
- CD71-binding FN3 domain of SEQ ID NO: 142 (designed binder) MSLPAPKNLVVSRVTEDSARLSWTASDAAFDSFHIWYFEKANEGEAIPLVVPGSERSYDLTGLKPGTEYDVDIGGVKGGAWSIPLGARFTT: 3.57e+06
- CD71-binding FN3 domain of SEQ ID NO: 166 (designed binder) MSLPAPKNLVVSRVTEDSARLSWTAPDAAFDSFEIGYFENLYLGEAIVLTVPGSERSYDLTGLKPGTEYWVQIGGIKGGNWSAPLSAIFTT: 4.44e+06
